Experiment: Intrinsic cytotoxicity against human MES-SA/Dx5 cells
Format: functional
measurement type: GI50

>>> result("COC(=O)c1cccc(NC(=O)COc2ccc(C34CC5CC(CC(C(=O)NCCN(C)C)(C5)C3)C4)cc2)c1")
"> 20 µM"
>>> result("COC(=O)c1ccccc1NC(=O)COc1ccc(C23CC4CC(CC(C(=O)N5CCc6cc(OC)c(OC)cc6C5)(C4)C2)C3)cc1")
"> 20 µM"
>>> result("COC(=O)c1cccc(NC(=O)COc2ccc(C34CC5CC(CC(C(N)=O)(C5)C3)C4)cc2)c1")
"14.3 µM"
>>> result("COC(=O)c1ccc(NC(=O)COc2ccc(C34CC5CC(CC(C(=O)N6CCc7cc(OC)c(OC)cc7C6)(C5)C3)C4)cc2)cc1")
"14.3 µM"
>>> result("COC(=O)c1cccc(NC(=O)COc2ccc(C34CC5CC(CC(C(=O)N6CCc7cc(OC)c(OC)cc7C6)(C5)C3)C4)cc2)c1")
"> 20 µM"
>>> result("COC(=O)c1cccc(NC(=O)COc2ccc(C34CC5CC(CC(C(=O)N6CCN(Cc7ccc(F)cc7)CC6)(C5)C3)C4)cc2)c1")
"> 20 µM"
>>> result("COc1cc2c(cc1OC)CN(C(=O)C13CC4CC(C1)CC(c1ccc(OCC(=O)Nc5cccc6cccnc56)cc1)(C4)C3)CC2")
"> 20 µM"
>>> result("COc1cc2c(cc1OC)CN(C(=O)C13CC4CC(C1)CC(c1ccc(OCC(=O)Nc5cccc(C(=O)NCc6ccco6)c5)cc1)(C4)C3)CC2")
"> 20 µM"
>>> result("COC(=O)c1cccc(NC(=O)COc2ccc(C34CC5CC(CC(C(=O)N6CCN(Cc7cccc(OC)c7)CC6)(C5)C3)C4)cc2)c1")
"13.2 µM"
>>> result("COc1cc2c(cc1OC)CN(C(=O)C13CC4CC(C1)CC(c1ccc(OCC(=O)Nc5cccc(C(F)(F)F)c5)cc1)(C4)C3)CC2")
"12.1 µM"
>>> result("COc1cc2c(cc1OC)CN(C(=O)C13CC4CC(C1)CC(c1ccc(OCC(=O)Nc5cccc(C(N)=O)c5)cc1)(C4)C3)CC2")
"16.3 µM"
>>> result("COC(=O)c1cccc(NC(=O)COc2ccc(C34CC5CC(CC(C(=O)N6CCN(Cc7ccc(OC)cc7)CC6)(C5)C3)C4)cc2)c1")
"14 µM"
>>> result("COC(=O)c1cccc(NC(=O)COc2ccc(C34CC5CC(CC(C(=O)NCc6ccc(OC)c(OC)c6)(C5)C3)C4)cc2)c1")
"> 20 µM"
>>> result("COc1cc2c(cc1OC)CN(C(=O)C13CC4CC(C1)CC(c1ccc(OCC(=O)Nc5cccc(C#N)c5)cc1)(C4)C3)CC2")
"> 20 µM"
>>> result("COC(=O)c1cccc(NC(=O)COc2ccc(C34CC5CC(CC(C(=O)Nc6ccc(C(C)(C)C)cc6)(C5)C3)C4)cc2)c1")
"> 20 µM"
>>> result("COc1ccc(CCN(C)CCCC(C#N)(c2ccc(OC)c(OC)c2)C(C)C)cc1OC (stereo unspecified)")
"> 20 µM"
